molecular target: human mGlu4 receptor (Homo sapiens (Human), UniProt Q14833); experiment: Intracellular Ca2+ mobilization assay (FLIPR), mGlu4 NAM; conditions: HEK-293 cells stably transfected with human mGlu4; inhibition of L-AP4 (EC80) response; IC50
Sequence (Q14833 33-912): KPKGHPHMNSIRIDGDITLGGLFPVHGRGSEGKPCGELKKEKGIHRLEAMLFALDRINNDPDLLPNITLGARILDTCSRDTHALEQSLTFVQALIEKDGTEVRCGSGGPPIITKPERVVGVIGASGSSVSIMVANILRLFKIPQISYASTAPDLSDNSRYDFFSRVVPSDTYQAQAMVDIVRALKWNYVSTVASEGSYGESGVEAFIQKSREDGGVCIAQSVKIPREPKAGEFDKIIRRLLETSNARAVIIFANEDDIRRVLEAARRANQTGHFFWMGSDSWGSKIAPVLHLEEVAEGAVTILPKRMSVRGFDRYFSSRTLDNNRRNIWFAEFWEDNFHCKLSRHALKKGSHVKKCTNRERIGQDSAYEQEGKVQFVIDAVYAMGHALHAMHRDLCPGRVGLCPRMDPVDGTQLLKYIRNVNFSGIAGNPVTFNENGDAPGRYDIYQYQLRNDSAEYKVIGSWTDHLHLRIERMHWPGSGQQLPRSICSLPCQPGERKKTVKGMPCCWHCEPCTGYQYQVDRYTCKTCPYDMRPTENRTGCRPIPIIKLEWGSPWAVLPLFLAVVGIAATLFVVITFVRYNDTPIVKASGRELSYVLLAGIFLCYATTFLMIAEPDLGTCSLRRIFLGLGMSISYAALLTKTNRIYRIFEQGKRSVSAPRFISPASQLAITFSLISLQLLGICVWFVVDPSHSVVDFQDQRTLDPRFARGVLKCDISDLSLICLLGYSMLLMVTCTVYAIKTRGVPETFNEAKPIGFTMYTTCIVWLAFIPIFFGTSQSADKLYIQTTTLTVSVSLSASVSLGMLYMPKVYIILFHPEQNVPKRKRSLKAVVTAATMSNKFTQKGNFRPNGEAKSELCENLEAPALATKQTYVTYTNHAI
// pEC50 lookup, one value per entry
Please treat pEC50 as minus the base-10 logarithm of the molar concentration.

O=S(=O)(Nc1c(F)cc(C#Cc2ccccc2)cc1F)c1cccc(Cl)c1Cl [Example 2]; 5.77

Any idea what its pEC50 is? The compound is Cc1ccc(C)c(S(=O)(=O)Nc2c(F)cc(C#Cc3ccccc3)cc2F)c1 [Example 30]
5.87

Any idea what its pEC50 is? The compound is O=S(=O)(Nc1c(F)cc(C#Cc2ccccc2)cc1F)c1cccnc1 [Example 7]
5.33

Any idea what its pEC50 is? The compound is Cc1cc(F)c(C)c(S(=O)(=O)Nc2c(F)cc(C#Cc3cncc(F)c3)cc2F)c1 [Example 38]
6.36

Any idea what its pEC50 is? The compound is Cc1c(C(F)(F)F)cccc1S(=O)(=O)Nc1c(F)cc(C#Cc2ccccc2)cc1F [Example 28]
5.71

Any idea what its pEC50 is? The compound is O=S(=O)(Nc1c(F)cc(C#Cc2ccccc2)cc1F)c1cncc(F)c1 [Example 24]
5.69

Any idea what its pEC50 is? The compound is Cc1ccccc1S(=O)(=O)Nc1c(F)cc(C#Cc2ccccc2)cc1F [Example 5]
5.43

Any idea what its pEC50 is? The compound is Cc1cncc(C#Cc2cc(F)c(NS(=O)(=O)c3cccc(Cl)c3C)c(F)c2)c1 [Example 56]
5.83

Any idea what its pEC50 is? The compound is O=S(=O)(Nc1c(F)cc(C#Cc2ccccc2)cc1F)c1cccc(Cl)c1 [Example 8]
5.23

Any idea what its pEC50 is? The compound is Cc1cccc(S(=O)(=O)Nc2c(F)cc(C#Cc3ccccc3)cc2F)c1 [Example 36]
5.30

Any idea what its pEC50 is? The compound is Cc1cc(F)c(C)c(S(=O)(=O)Nc2c(F)cc(C#Cc3cccc(O)c3)cc2F)c1 [Example 61]
6.00

Any idea what its pEC50 is? The compound is COc1cccc(S(=O)(=O)Nc2c(F)cc(C#Cc3ccccc3)cc2F)c1Cl [Example 27]
5.07
